Quick reference for IC50 among some compounds
Target: Alpha-glucosidase (Saccharomyces cerevisiae S288c, UniProt P53341+P38158+P07265)
Assay: Inhibition of Saccharomyces cerevisiae Alpha-glucosidase using p-NPG as substrate and measured after 10 mins
Assay type: protein assay
Express the result in µM but write the number alone.

Reference set, count: 2
compound_structure_string=Cc1cccc(CSc2nnc(-c3cc4c([nH]c5ccccc54)c(-c4ccccc4)n3)o2)c1 study_target="Alpha-glucosidase (Saccharomyces cerevisiae S288c, UniProt P53341+P38158+P07265)" unit_info=µM value_observed=10.4
compound_structure_string=Brc1cccc(CSc2nnc(-c3cc4c([nH]c5ccccc54)c(-c4ccccc4)n3)o2)c1 study_target="Alpha-glucosidase (Saccharomyces cerevisiae S288c, UniProt P53341+P38158+P07265)" unit_info=µM value_observed=8.47

Shifting focus to the compound that follows.
Task: Give the reported value of IC50 for this record: "Brc1ccc(CSc2nnc(-c3cc4c([nH]c5ccccc54)c(-c4ccccc4)n3)o2)cc1"
Result: 5.42
